# Test system: human APOE RNA
# ASSAY_SUMMARY: Dose-dependent inhibition of human APOE RNA in HepG2 cells, electroporation, 50,000 cells per well, RT-PCR normalized to GAPDH (Example 4, Tables 8-10)
# Format: cell-based
# DETAILS: HepG2 cells, electroporation, 24-hour treatment, 5 nM, Table 8
Strand notation (5' to 3'): a small letter for the sugar, then the base; units joined by * are phosphorothioate-linked, units joined directly phosphodiester-linked; [ ] holds rarer units or linkages, { } end groups; capitals alone tell only the bases. [ms] = mesyl phosphoramidate linkage; e = 2'-O-(2-methoxyethyl) (MOE); k = constrained ethyl (cEt); [5mC] = 5-methylcytosine; d = 2'-deoxy (DNA)
MEASUREMENT_NAME: APOE RNA (% UTC) 5 nM

SUBSTANCE | APOE RNA (% UTC) 5 nM
1778127: modified oligonucleotide complementary to human APOE RNA (eA*e[5mC]eTeTkGkG*dT*dG[ms]dA[ms]dA*dT*d[5mC]*dT*dT*dT*dA[ms]kTeT[ms]eA[ms]eA; antisense) [compound 1778127] | 98 % UTC

*Q* human APOE RNA / APOE RNA (% UTC) 5 nM / 1778131: modified oligonucleotide complementary to human APOE RNA (eA*e[5mC]eTeTeGkG*dT*dG[ms]dA[ms]dA*dT*d[5mC]*dT*dT*dT*dA[ms]kTkT*eA*eA; antisense) [compound 1778131] : value?
*A* 104 % UTC

*Q* What do we get for 1778115: modified oligonucleotide complementary to human APOE RNA (eA*e[5mC]eTeTkGkG*dT*dG[ms]dA[ms]dA*dT*d[5mC]*dT*dT*dT*dA[ms]eTeT*eA*eA; antisense) [compound 1778115] ?
*A* 76 % UTC

*Q* Similarly, 1785617: modified oligonucleotide complementary to human APOE RNA (k[5mC]*dT[ms]dT[ms]kG*dG[ms]kT*dG[ms]dA[ms]dA[ms]dT[ms]d[5mC]*dT*dT*dT*dA*dT*kT*kA*dA[ms]kA; antisense) [compound 1785617] ?
*A* 91 % UTC

----------
Listed here: items and their measured APOE RNA (% UTC).
# System: human APOE RNA
# ASSAY_SUMMARY: Dose-dependent inhibition of human APOE RNA in differentiated SH-SY5Y cells, free uptake, 5 days (Example 5)
# Type: cell-based
# DETAILS: 205 nM, 5 days (Table 13)
# Protocol: Modified oligonucleotides selected from the examples above were tested at various doses in differentiated SH-SY5Y cells. The modified oligonucleotides were tested in a series of experiments that had the same culture conditions. Differentiated SH-SY5Y cells plated at a density of 10,000 cells per well were treated by free uptake with various concentrations of modified oligonucleotide as specified in the tables below. […]
Strand notation (5' to 3'): a small letter for the sugar, then the base; units joined by * are phosphorothioate-linked, units joined directly phosphodiester-linked; [ ] holds rarer units or linkages, { } end groups; capitals alone tell only the bases. [ms] = mesyl phosphoramidate linkage; e = 2'-O-(2-methoxyethyl) (MOE); k = constrained ethyl (cEt); [5mC] = 5-methylcytosine; d = 2'-deoxy (DNA)
Please state the figure in % UTC; there is no need to write the unit.

Please review the following examples before continuing.
SUBSTANCE | ENDPOINT_RESULT
Aes^mCeoTeoTesGesGksTdsGdzAdzAdzTds^mCdsTdsTdsTdsAdzTksTksAesAe (eA*e[5mC]eTeT*eG*kG*dT*dG[ms]dA[ms]dA[ms]dT*d[5mC]*dT*dT*dT*dA[ms]kT*kT*eA*eA) [Compound No. 1757576] | 43
Aks^mCeoTeoTesGesGksTdsGdzAdzAdzTds^mCdsTdsTdsTdsAdzTksTksAesAe (kA*e[5mC]eTeT*eG*kG*dT*dG[ms]dA[ms]dA[ms]dT*d[5mC]*dT*dT*dT*dA[ms]kT*kT*eA*eA) [Compound No. 1809635] | 33
TezTeoGeoGksTdsGdzAdzAdzTds^mCdsTdsTdsTdsAdzTksTksAesAesAes^mCe (antisense eT[ms]eTeGkG*dT*dG[ms]dA[ms]dA[ms]dT*d[5mC]*dT*dT*dT*dA[ms]kT*kT*eA*eA*eA*e[5mC]) [Compound No. 1809814] | 47

*Q* Write down the reported APOE RNA (% UTC) of ^mCksTksTksGdzGdzTdzGdzAdzAdzTds^mCdsTdsTdsTdsAdsTdsTksAksAdzAk (antisense k[5mC]*kT*kT*dG[ms]dG[ms]dT[ms]dG[ms]dA[ms]dA[ms]dT*d[5mC]*dT*dT*dT*dA*dT*kT*kA*dA[ms]kA) [Compound No. 1785602] , test system: human APOE RNA.
*A* 40

----------
// reported APOE RNA (% control) Spinal Cord per item
# System: human APOE RNA
# ASSAY_SUMMARY: Activity in APOE 1549 knock-in mice, single ICV bolus, 2 weeks (Example 7)
# Type: in vivo
# DETAILS: single ICV bolus of 300 μg, two weeks post treatment, spinal cord, Table 17
Strand notation (5' to 3'): a small letter for the sugar, then the base; units joined by * are phosphorothioate-linked, units joined directly phosphodiester-linked; [ ] holds rarer units or linkages, { } end groups; capitals alone tell only the bases. [ms] = mesyl phosphoramidate linkage; e = 2'-O-(2-methoxyethyl) (MOE); [5mC] = 5-methylcytosine; d = 2'-deoxy (DNA)

Past entries and their recorded results:
SUBSTANCE | TEST_SYSTEM | APOE RNA (% control) Spinal Cord
1693102: 6-10-4 MOE gapmer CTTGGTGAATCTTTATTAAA, linkages ssssoszzzssssszssss (e[5mC]*eT*eT*eG*eGeT*dG[ms]dA[ms]dA[ms]dT*d[5mC]*dT*dT*dT*dA[ms]dT*eT*eA*eA*eA) [compound 1693102] | human APOE RNA | 45 % control
1693101: 6-10-4 MOE gapmer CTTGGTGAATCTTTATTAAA, linkages sssssozzzssssszssss (e[5mC]*eT*eT*eG*eG*eTdG[ms]dA[ms]dA[ms]dT*d[5mC]*dT*dT*dT*dA[ms]dT*eT*eA*eA*eA) [compound 1693101] | human APOE RNA | 57 % control
1693105: 6-10-4 MOE gapmer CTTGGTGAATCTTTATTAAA, linkages sosssszzzssssszssss (e[5mC]*eTeT*eG*eG*eT*dG[ms]dA[ms]dA[ms]dT*d[5mC]*dT*dT*dT*dA[ms]dT*eT*eA*eA*eA) [compound 1693105] | human APOE RNA | 38 % control

Here is another substance to look at.
*Q* Provide value of APOE RNA (% control) Spinal Cord for this record tested with human APOE RNA: 1652902: 6-10-4 MOE gapmer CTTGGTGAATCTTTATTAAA, linkages sooooossssssssssoss (antisense e[5mC]*eTeTeGeGeTdG*dA*dA*dT*d[5mC]*dT*dT*dT*dA*dT*eTeA*eA*eA) [compound 1652902]
*A* 171 % control

----------
# Tested on: human APOE RNA
# ASSAY_SUMMARY: Dose-dependent inhibition of human APOE RNA in HepG2 cells, electroporation, 50,000 cells per well, RT-PCR normalized to GAPDH (Example 4, Tables 8-10)
# Type: cell-based
# DETAILS: 512 nM; HepG2, electroporation, 16-hour treatment
Strand notation (5' to 3'): a small letter for the sugar, then the base; units joined by * are phosphorothioate-linked, units joined directly phosphodiester-linked; [ ] holds rarer units or linkages, { } end groups; capitals alone tell only the bases. [ms] = mesyl phosphoramidate linkage; e = 2'-O-(2-methoxyethyl) (MOE); k = constrained ethyl (cEt); [5mC] = 5-methylcytosine; d = 2'-deoxy (DNA)
MEASUREMENT_NAME: APOE RNA (% UTC)
Answer in % UTC, number only, no unit symbol.

*Q* Recorded APOE RNA (% UTC) of 1757568 (eA*e[5mC]eTeTeG*dG*dT*dG*dA*dA*dT*d[5mC]*dT*dT*dT*kAkTeT*eA*eA; antisense) [Compound 1757568] , please.
*A* 63

*Q* Entry 1757572 (eA*e[5mC]eTeT*kG*kG*dT*dG[ms]dA[ms]dA[ms]dT*d[5mC]*dT*dT*dT*dA[ms]eT*eT*eA*eA; antisense) [Compound 1757572] please
*A* 67

*Q* Would you mind doing 1757556: mixed MOE/cEt gapmer TTGGTGAATCTTTATTAA, sugar eeeeeddddddddekkee, linkages soossssssssssooss (eT*eTeGeG*eT*dG*dA*dA*dT*d[5mC]*dT*dT*dT*eAkTkT*eA*eA) [compound 1757556] as well?
*A* 65

*Q* Likewise for 1757566 (eA*e[5mC]eTkTkG*dG*dT*dG*dA*dA*dT*d[5mC]*dT*dT*dT*eAeTeT*eA*eA; antisense) [Compound 1757566] ?
*A* 49

*Q* Next substance: 1757581 (eT*eTeGeGkT*dG*dA*dA*dT*d[5mC]*dT*dT*dT*dA*dT*eTeAeA*eA*e[5mC]; antisense) [Compound 1757581]
*A* 58
